biological target: UniProt P00376
Sequence (P00376 whole entry): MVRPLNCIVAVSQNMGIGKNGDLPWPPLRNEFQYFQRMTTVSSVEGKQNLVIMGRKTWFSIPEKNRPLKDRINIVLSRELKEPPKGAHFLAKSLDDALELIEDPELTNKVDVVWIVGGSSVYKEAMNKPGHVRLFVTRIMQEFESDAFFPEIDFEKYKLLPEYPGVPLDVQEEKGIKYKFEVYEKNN
metric_name: log(1/I50)

INSERT INTO assay_data (structure_notation, reported_measurement) VALUES
  ('CC(=O)Nc1ccc(Cc2cnc(N)nc2N)cc1[N+](=O)[O-]', 5.16),
  ('Nc1ncc(Cc2ccc(OC(F)(F)F)cc2)c(N)n1', 4.99),
  ('Nc1ccc(Cc2cnc(N)nc2N)cc1', 4.57),
  ('COc1cccc(Cc2cnc(N)nc2N)c1', 5.02),
  ('COc1ccc(Cc2cnc(N)nc2N)cc1OC', 5.15),
  ('Nc1ncc(Cc2cccc(C(F)(F)F)c2)c(N)n1', 5.53),
  ('Cc1ccc(Cc2cnc(N)nc2N)cc1', 4.8);

Reference source for all entries: ChEMBL document CHEMBL3227947
